# test_target: human recombinant LDHB (Homo sapiens)
# Sequence (P07195 whole entry): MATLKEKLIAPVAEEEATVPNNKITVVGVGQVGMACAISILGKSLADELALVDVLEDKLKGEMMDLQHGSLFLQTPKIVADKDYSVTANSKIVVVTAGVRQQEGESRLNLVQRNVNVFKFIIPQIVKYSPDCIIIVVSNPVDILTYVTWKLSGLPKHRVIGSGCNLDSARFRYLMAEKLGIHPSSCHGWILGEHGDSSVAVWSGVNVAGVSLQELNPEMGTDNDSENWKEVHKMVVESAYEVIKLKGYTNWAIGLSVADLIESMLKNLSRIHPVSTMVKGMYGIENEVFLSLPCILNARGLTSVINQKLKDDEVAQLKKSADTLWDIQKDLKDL
# assay_name: LDH coupled-enzyme kinetic assay
measured_parameter: pKi
Answers are plain numbers, as −log10 of the molar value.

Lookup: Quick one: pKi for CC(=O)C(=O)O [pyruvate] ?
Found: 2.54

* * *

# test_target: purified human recombinant LDHA (Homo sapiens)
# assay_name: LDH coupled-enzyme kinetic assay
measured_parameter: pKi
Give bare numbers, as −log10 of the molar value.

Lookup: Quick one: pKi for CC(=O)C(=O)O [pyruvate] ?
Found: 2.27

* * *

# System: LDH in extracts from QGP1 cells
# assay_name: LDH enzyme kinetics in cell extracts
# Type: biochemical, human
# condition: read-out: Ki (apparent, substrate inhibition); QGP1 cell extract
measured_parameter: Ki (mM)
Answers are plain numbers, in mM.

Lookup: Test system LDH in extracts from QGP1 cells; read-out Ki; what value for CC(=O)C(=O)O [pyruvate] ?
Found: 3.42
